- test-target: T1, human CD1a expressed on cells (human, UniProt P06126 17-327; P61769 21-119)
- T1 construct: also called HEK - CD1a; C1R - CD1a
- assay-protocol: flow cytometry, C1R cells, 3.16 µg/ml antibody
Provide the recorded Fluorescence Intensity Geomean (normalized to background) for the entries that follow.
One number for each entry, in fold over background.

binder	unit-info	experimental-result
110 (VR12112) (antibody, V domains shown, also called OX110; antibody 110) VH: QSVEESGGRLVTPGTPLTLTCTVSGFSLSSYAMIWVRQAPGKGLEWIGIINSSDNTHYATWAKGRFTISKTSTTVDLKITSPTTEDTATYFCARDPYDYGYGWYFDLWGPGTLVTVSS VL: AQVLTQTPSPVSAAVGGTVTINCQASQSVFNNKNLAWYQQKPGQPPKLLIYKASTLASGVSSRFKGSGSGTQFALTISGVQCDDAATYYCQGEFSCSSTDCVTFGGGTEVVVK	fold over background	15.2
77A (VR11851) (antibody, V domains shown, also called OX77a; antibody 77a) VH: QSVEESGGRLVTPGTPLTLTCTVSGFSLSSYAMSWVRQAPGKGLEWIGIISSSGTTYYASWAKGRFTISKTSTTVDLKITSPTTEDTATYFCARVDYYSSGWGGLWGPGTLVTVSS VL: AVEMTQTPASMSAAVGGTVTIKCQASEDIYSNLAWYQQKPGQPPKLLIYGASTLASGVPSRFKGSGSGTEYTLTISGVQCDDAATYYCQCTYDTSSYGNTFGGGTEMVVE	fold over background	4.2
116 (VR12117) (antibody, V domains shown, also called OX116) VH: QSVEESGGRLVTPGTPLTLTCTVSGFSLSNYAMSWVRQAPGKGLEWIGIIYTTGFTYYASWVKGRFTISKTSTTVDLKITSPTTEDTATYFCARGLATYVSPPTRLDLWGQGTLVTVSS VL: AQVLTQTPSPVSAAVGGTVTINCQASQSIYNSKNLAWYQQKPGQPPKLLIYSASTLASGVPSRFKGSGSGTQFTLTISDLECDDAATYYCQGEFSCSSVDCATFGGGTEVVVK	fold over background	24

Kindly consider the entry below.
Exam item: Identify measured Fluorescence Intensity Geomean (normalized to background) corresponding to 111 (VR12113) (antibody, V domains shown, also called OX111) VH: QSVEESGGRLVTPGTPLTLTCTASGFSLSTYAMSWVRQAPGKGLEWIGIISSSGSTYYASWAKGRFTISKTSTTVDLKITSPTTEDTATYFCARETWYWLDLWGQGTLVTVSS VL: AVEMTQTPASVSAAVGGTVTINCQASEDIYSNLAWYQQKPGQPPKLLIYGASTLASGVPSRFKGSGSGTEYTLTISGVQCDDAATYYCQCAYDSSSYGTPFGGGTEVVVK
Marked response: 15.6
